Measured IC50, listed per entry.
# target: HA-mouse µOR (Mus musculus, UniProt P42866)
# Construct: HA; expressed in transfected cells; host or cells: HEK 293
# Sequence (P42866 whole entry): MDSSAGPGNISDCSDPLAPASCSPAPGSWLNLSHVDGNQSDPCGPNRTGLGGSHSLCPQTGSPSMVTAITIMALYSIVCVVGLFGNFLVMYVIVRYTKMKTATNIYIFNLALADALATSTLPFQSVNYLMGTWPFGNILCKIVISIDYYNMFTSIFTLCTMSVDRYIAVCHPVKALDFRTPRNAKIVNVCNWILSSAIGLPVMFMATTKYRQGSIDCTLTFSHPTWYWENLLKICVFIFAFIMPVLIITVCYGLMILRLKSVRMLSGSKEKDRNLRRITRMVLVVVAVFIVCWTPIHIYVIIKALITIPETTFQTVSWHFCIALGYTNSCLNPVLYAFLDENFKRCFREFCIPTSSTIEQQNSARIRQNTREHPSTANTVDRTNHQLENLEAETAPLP
# assay_overview: cAMP GloSensor inhibition assay in HEK 293 cells
# Type: cell-based
# details: HEK 293, forskolin 30 µM; read-out: cAMP IC50 (nM) µOR
Respond with the bare value in nM.

Q: Would you kindly share the measured IC50 for CC(C)C[C@H](NC(=O)[C@H](Cc1cccc([N+](=O)[O-])c1)NC(=O)CNC(=O)CNC(=O)[C@@H](N)Cc1ccc(O)cc1)C(=O)O [Compound 1i] ?
Ans: 49

====

# target: µOR (Homo sapiens)
# Sequence (P35372 whole entry): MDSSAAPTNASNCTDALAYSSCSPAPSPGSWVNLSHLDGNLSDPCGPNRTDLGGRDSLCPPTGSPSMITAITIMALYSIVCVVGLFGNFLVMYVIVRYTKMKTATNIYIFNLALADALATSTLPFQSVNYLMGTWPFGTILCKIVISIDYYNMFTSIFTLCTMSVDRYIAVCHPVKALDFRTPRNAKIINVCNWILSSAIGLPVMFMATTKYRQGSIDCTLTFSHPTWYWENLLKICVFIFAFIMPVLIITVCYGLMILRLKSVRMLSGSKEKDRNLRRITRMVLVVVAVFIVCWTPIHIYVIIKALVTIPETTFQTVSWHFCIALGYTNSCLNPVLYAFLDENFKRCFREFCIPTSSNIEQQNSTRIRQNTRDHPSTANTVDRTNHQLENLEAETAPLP
# assay_overview: Bias factor calculation (operational model, cAMP vs β-arrestin 2)
# details: DAMGO as reference; >1 = more G protein-biased
property: Bias Factor µOR (DG = Ref)
Could you respond with only the numeric value?

Sample answers from the record:
- CC(C)C[C@H](NC(=O)[C@H](Cc1cccc(Cl)c1)NC(=O)CNC(=O)CNC(=O)[C@@H](N)Cc1ccc(O)cc1)C(=O)O [Compound 1b, H2N-Tyr-Gly-Gly-(meta-Cl)Phe-Leu-OH]: 0.3
- Cc1cccc(C[C@H](NC(=O)CNC(=O)CNC(=O)[C@@H](N)Cc2ccc(O)cc2)C(=O)N[C@@H](CC(C)C)C(=O)O)c1 [Compound 1e]: 11.5
- CC(C)C[C@H](NC(=O)[C@H](Cc1cccc(F)c1)NC(=O)CNC(=O)CNC(=O)[C@@H](N)Cc1ccc(O)cc1)C(=O)O [Compound 1a, H2N-Tyr-Gly-Gly-(meta-F)Phe-Leu-OH]: 22.2
- CC(C)C[C@H](NC(=O)[C@H](Cc1cccc(Br)c1)NC(=O)CNC(=O)CNC(=O)[C@@H](N)Cc1ccc(O)cc1)C(=O)O [Compound 1c, H2N-Tyr-Gly-Gly-(meta-Br)Phe-Leu-OH]: 1.2
- CC(C)C[C@H](NC(=O)[C@H](Cc1cccc(C#N)c1)NC(=O)CNC(=O)CNC(=O)[C@@H](N)Cc1ccc(O)cc1)C(=O)O [Compound 1h]: 5.4

Q: Would you kindly share the measured Bias Factor µOR (DG = Ref) for CC(C)C[C@H](NC(=O)[C@H](Cc1cccc(I)c1)NC(=O)CNC(=O)CNC(=O)[C@@H](N)Cc1ccc(O)cc1)C(=O)O [Compound 1d] ?
Ans: 3.2

Q: Would you kindly share the measured Bias Factor µOR (DG = Ref) for CC(C)C[C@H](NC(=O)[C@H](Cc1cccc(C(F)(F)F)c1)NC(=O)CNC(=O)CNC(=O)[C@@H](N)Cc1ccc(O)cc1)C(=O)O [Compound 1g] ?
Ans: 4.3

Q: Would you kindly share the measured Bias Factor µOR (DG = Ref) for C[C@@H](NC(=O)[C@@H](N)Cc1ccc(O)cc1)C(=O)NCC(=O)N(C)[C@@H](Cc1ccccc1)C(=O)NCCO [DAMGO, (D-Ala^2, N-MePhe^4, Gly-ol) enkephalin, reference compound] ?
Ans: 1

====

# target: µOR (Homo sapiens)
# assay_overview: cell-based
# Format: cell-based
Measured pEC50, listed per entry.
Value format note: pEC50 is -log10 of concentration (mol/L); just state the number.

Sample answers from the record:
• CC(C)C[C@H](NC(=O)[C@H](Cc1cccc(Br)c1)NC(=O)CNC(=O)CNC(=O)[C@@H](N)Cc1ccc(O)cc1)C(=O)O [Compound 1c, H2N-Tyr-Gly-Gly-(meta-Br)Phe-Leu-OH] = 7.45
• CC(C)C[C@H](NC(=O)[C@H](Cc1cccc(C(F)(F)F)c1)NC(=O)CNC(=O)CNC(=O)[C@@H](N)Cc1ccc(O)cc1)C(=O)O [Compound 1g] = 7.25
• CC(C)C[C@H](NC(=O)[C@H](Cc1cccc(C#N)c1)NC(=O)CNC(=O)CNC(=O)[C@@H](N)Cc1ccc(O)cc1)C(=O)O [Compound 1h] = 6.80
• CC(C)C[C@H](NC(=O)[C@H](Cc1cccc(F)c1)NC(=O)CNC(=O)CNC(=O)[C@@H](N)Cc1ccc(O)cc1)C(=O)O [Compound 1a, H2N-Tyr-Gly-Gly-(meta-F)Phe-Leu-OH] = 6.24

Turning now to a further record.
Q: Would you kindly share the measured pEC50 for CC(C)C[C@H](NC(=O)[C@H](Cc1cccc([N+](=O)[O-])c1)NC(=O)CNC(=O)CNC(=O)[C@@H](N)Cc1ccc(O)cc1)C(=O)O [Compound 1i] ?
Ans: 6.27
